Each recorded value in this set is attributed to patent US20140154255A1.

Molecular target: unlabeled human VEGF (ELISA coat) (human, UniProt P15692-4 27-191, limits assumed)
Sequence (P15692 other isoform, or with tags, fused parts or gaps limits assumed): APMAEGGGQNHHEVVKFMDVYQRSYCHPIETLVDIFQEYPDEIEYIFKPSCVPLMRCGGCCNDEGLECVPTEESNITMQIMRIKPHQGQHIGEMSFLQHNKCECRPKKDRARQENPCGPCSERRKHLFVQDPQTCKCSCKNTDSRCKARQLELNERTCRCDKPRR
Assay: ELISA overnight, EC50 WT/EC50 mutant
MEASURED PROPERTY: ELISA o/n binding (fold)

| BINDER | MEASURED PROPERTY | UNIT ABBREV | OBSERVED VALUE |
| --- | --- | --- | --- |
| T28 R (anti-VEGF IgG) (antibody, V domains shown, copies: 2 + 2) VH: EVQLVESGGGLVQPGGSLRLSCAASGYRFTNYGMNWVRQAPGKGLEWVGWINTYTGEPTYAADFKRRFTFSLDTSKSTAYLQMNSLRAEDTAVYYCAKYPHYYGSSHWYFDVWGQGTLVTVSS VL: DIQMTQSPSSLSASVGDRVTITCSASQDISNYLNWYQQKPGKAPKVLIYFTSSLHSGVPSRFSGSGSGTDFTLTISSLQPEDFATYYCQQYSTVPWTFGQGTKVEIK | ELISA o/n binding | fold | 1.8 |
| N31 Y (anti-VEGF IgG) (antibody, V domains shown, copies: 2 + 2) VH: EVQLVESGGGLVQPGGSLRLSCAASGYTFTYYGMNWVRQAPGKGLEWVGWINTYTGEPTYAADFKRRFTFSLDTSKSTAYLQMNSLRAEDTAVYYCAKYPHYYGSSHWYFDVWGQGTLVTVSS VL: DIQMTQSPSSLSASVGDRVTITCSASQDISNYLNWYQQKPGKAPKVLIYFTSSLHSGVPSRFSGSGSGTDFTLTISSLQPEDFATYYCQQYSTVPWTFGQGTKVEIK | ELISA o/n binding | fold | 1.5 |
| T30 R (anti-VEGF IgG) (antibody, V domains shown, copies: 2 + 2) VH: EVQLVESGGGLVQPGGSLRLSCAASGYTFRNYGMNWVRQAPGKGLEWVGWINTYTGEPTYAADFKRRFTFSLDTSKSTAYLQMNSLRAEDTAVYYCAKYPHYYGSSHWYFDVWGQGTLVTVSS VL: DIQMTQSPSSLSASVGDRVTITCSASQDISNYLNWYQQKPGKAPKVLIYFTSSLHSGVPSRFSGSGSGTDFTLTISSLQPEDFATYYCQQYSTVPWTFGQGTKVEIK | ELISA o/n binding | fold | 3.2 |
| S100a A (anti-VEGF IgG) (antibody, V domains shown, copies: 2 + 2) VH: EVQLVESGGGLVQPGGSLRLSCAASGYTFTNYGMNWVRQAPGKGLEWVGWINTYTGEPTYAADFKRRFTFSLDTSKSTAYLQMNSLRAEDTAVYYCAKYPHYYGASHWYFDVWGQGTLVTVSS VL: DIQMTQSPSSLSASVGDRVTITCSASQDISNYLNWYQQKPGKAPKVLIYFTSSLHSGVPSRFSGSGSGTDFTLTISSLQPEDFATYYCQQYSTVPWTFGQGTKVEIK | ELISA o/n binding | fold | 2.1 |
